src = patent US20190359693A1

Recorded VNA titer values for a group of binders are listed next.
- tested-on: HA of H5N1 A/Vietnam/1194/04 (influenza A virus)
- run-description: cell-based or functional assay

SD1017 (VHH) VHH: EVQLVESGGGLVQAGGSLRLSCAASGRTYAMAWFRQAPGKEREFVAHINALGTRAYYSDSVEGRFTISRDNAKNTGYLQMNSLEPEDTAVYVCAAGGQWRAAPVADAAQYDFWGQGTQVTVSS	> 1000 nM
SD1047 (VHH) VHH: EVQLVESGGGLVQAGGSLRISCAASGRTYAMAWFRQAPGKEREFVAHINALGTRTYYSDSVKDRFTISRDNAKNTEYLQMNSLKPEDTAVYYCVAGGQWRAAPVAAAESYDFWGQGTQVTVSS	> 1000 nM

Request: GET /values?readout=VNA titer&item= SD1046 (VHH) VHH: EVQLVESGGGLVQAGDSLRISCAASGRTLSIYSMGWFRQAPGKEREFVATIGWNSGRTFYPDSLKGRFTISRDNARNTLYLQMNNLRPEDTAVYYCAAAKGPLRLSSQADYWGQGTQVTVSS
Response: > 1000 nM
